Reference source for all entries: patent US20160176924A1

ASSAY SUMMARY: Human blood plasma stability assay
Type: in vitro ADME
TEST CONTEXT: human, plasma, Blood plasma half life (T1/2)
Peptide text beside a SMILES is read from it.
MEASURED METRIC: half-life at […]

Look over these answered cases.
1. CC[C@H](C)[C@H](NC(=O)CCOCCOCCOCCOCCOCCC(=O)N[C@H](C(=O)N[C@@H](CCC(=O)O)C(=O)N[C@H](C(=O)N[C@@H](C)C(=O)N[C@H](C(=O)O)C(C)C)[C@@H](C)O)[C@@H](C)CC)C(=O)N[C@@H](CCC(=O)O)C(=O)N[C@H](C(=O)N[C@@H](C)C(=O)N[C@H](C(=O)O)C(C)C)[C@@H](C)O: 6.82 h
2. CC[C@H](C)[C@H](NC(=O)CCOCCOCCOCCOCCOCCOCCOCCOCCOCCC(=O)N[C@H](C(=O)N[C@@H](CCC(=O)O)C(=O)N[C@@H](CO)C(=O)N[C@@H](CC(=O)O)C(=O)N[C@H](C(=O)O)C(C)C)[C@@H](C)CC)C(=O)N[C@@H](CCC(=O)O)C(=O)N[C@@H](CO)C(=O)N[C@@H](CC(=O)O)C(=O)N[C@H](C(=O)O)C(C)C: > 133 h
3. CC[C@H](C)[C@H](NC(=O)CCOCCOCCOCCOCCOCCC(=O)N[C@H](C(=O)N[C@@H](CCC(=O)O)C(=O)N[C@@H](CO)C(=O)N[C@@H](CC(=O)O)C(=O)N[C@H](C(=O)O)C(C)C)[C@@H](C)CC)C(=O)N[C@@H](CCC(=O)O)C(=O)N[C@@H](CO)C(=O)N[C@@H](CC(=O)O)C(=O)N[C@H](C(=O)O)C(C)C: > 133 h
4. CC(C)[C@H](NC(=O)[C@H](CC(=O)O)NC(=O)[C@H](CO)NC(=O)[C@@H](N)CCC(N)=O)C(=O)O [Compound 29] (H-QSDV-OH): 0.283 to 0.917 h
5. CC[C@H](C)[C@H](NC(=O)CCOCCOCCOCCOCCOCCOCCOCCOCCOCCOCCOCCOCCOCCC(=O)N[C@H](C(=O)N[C@@H](CCC(=O)O)C(=O)N[C@@H](CO)C(=O)N[C@@H](CC(=O)O)C(=O)N[C@H](C(=O)O)C(C)C)[C@@H](C)CC)C(=O)N[C@@H](CCC(=O)O)C(=O)N[C@@H](CO)C(=O)N[C@@H](CC(=O)O)C(=O)N[C@H](C(=O)O)C(C)C: > 133 h
6. CC[C@H](C)[C@H](NC(=O)CCOCCOCCOCCOCCOCCOCCOCCC(=O)N[C@H](C(=O)N[C@@H](CCC(=O)O)C(=O)N[C@@H](CO)C(=O)N[C@@H](CC(=O)O)C(=O)N[C@H](C(=O)O)C(C)C)[C@@H](C)CC)C(=O)N[C@@H](CCC(=O)O)C(=O)N[C@@H](CO)C(=O)N[C@@H](CC(=O)O)C(=O)N[C@H](C(=O)O)C(C)C: > 133 h
7. CC[C@H](C)[C@H](N)C(=O)N[C@@H](C)C(=O)N[C@H](C(=O)N(C)[C@@H](C)C(=O)N[C@H](C(=O)O)C(C)C)[C@@H](C)O: 0.533 h

// moving on: another record for half-life at […]
Prompt: Please report half-life at […] for the following compound: CC[C@H](C)[C@H](NC(=O)CCOCCOCCOCCOCCOCCC(=O)N[C@H](C(=O)N[C@@H](C)C(=O)N[C@H](C(=O)N[C@@H](C)C(=O)N[C@H](C(=O)O)C(C)C)[C@@H](C)O)[C@@H](C)CC)C(=O)N[C@@H](C)C(=O)N[C@H](C(=O)N[C@@H](C)C(=O)N[C@H](C(=O)O)C(C)C)[C@@H](C)O
Response: 2.05 h
